# Tested on: cornea of rats with dry eye syndrome (ELGE)
# Procedure Details: Corneal permeability of fluorescent dye (corneal damage) in rats with ELGE-induced dry eye syndrome
# Assay type: in vivo, rat
# Particulars: 0.3% solution, day 14 after the administration, study of YDE-029 to YDE-043 (Table 17)
Non-standard residues stand in square brackets, D forms with d. Residues, ends and D or L forms follow the SMILES beside them. cisHyp = O=C(O)[C@@H]1C[C@H](O)CN1; Hyp = O=C(O)[C@@H]1C[C@@H](O)CN1
Kindly state Permeability of fluorescent dye (%) for each of the entries shown.
Reply with just the number (in %).

Q) Output Permeability of fluorescent dye (%) of CC(C)C[C@H](NC(=O)CNC(=O)[C@H](CC(C)C)NC(=O)[C@H](CCC(N)=O)NC(=O)CNC(=O)[C@@H]1C[C@@H](O)CN1)C(=O)N[C@@H](C)C(=O)NCC(=O)N1CCC[C@H]1C(=O)N[C@@H](CCC(N)=O)C(=O)O [YDE-032, HyP-Gly-Gln-Leu-Gly-Leu-Ala-Gly-Pro-Gln] (H-[Hyp]GQLGLAGPQ-OH)
A) 58.90

Q) Identify the reported Permeability of fluorescent dye (%) for the following entry. CC(C)C[C@H](NC(=O)CNC(=O)[C@H](CC(C)C)NC(=O)[C@H](CCC(N)=O)NC(=O)CNC(=O)[C@@H]1C[C@H](O)CN1)C(=O)N[C@@H](C)C(=O)NCC(=O)N1CCC[C@H]1C(=O)N[C@@H](CCCCN)C(=O)O [YDE-034] (H-[cisHyp]GQLGLAGPK-OH)
A) 32.17

Q) Name the recorded Permeability of fluorescent dye (%) of the molecule listed here: CC(C)C[C@H](NC(=O)CNC(=O)[C@H](CC(C)C)NC(=O)[C@H](CCC(N)=O)NC(=O)CNC(=O)[C@@H]1C[C@@H](O)CN1)C(=O)N[C@@H](C)C(=O)NCC(=O)N1CCC[C@H]1C(=O)N[C@@H](Cc1ccc(O)cc1)C(=O)O [YDE-029, HyP-Gly-Gln-Leu-Gly-Leu-Ala-Gly-Pro-Tyr] (H-[Hyp]GQLGLAGPY-OH)
A) 63.45

###

Task for the reader: assign each of the following molecules its reported Amount of related substances (%; after 12 weeks).
# Procedure Details: Stability in aqueous solution, amount of related substances under long-term storage conditions
# Format: physicochemical
# Particulars: glass vial, 25° C., 75% RH
Non-standard residues stand in square brackets, D forms with d. Residues, ends and D or L forms follow the SMILES beside them. ξ: configuration not given here. Hyp = O=C(O)[C@@H]1C[C@@H](O)CN1; Ile(3ξ) = CCC(C)[C@H](N)C(=O)O; Thr(3ξ) = CC(O)[C@H](N)C(=O)O
Quick reminder: number only, in %, skip the unit.

Q) Return the recorded Amount of related substances (%; after 12 weeks) value; entry: CC(C)C[C@H](NC(=O)[C@@H](NC(=O)[C@H](CC(=O)O)NC(=O)[C@H](CCC(N)=O)NC(=O)CNC(=O)[C@@H]1C[C@@H](O)CN1)C(C)O)C(=O)N[C@@H](C)C(=O)NCC(=O)N1CCC[C@H]1C(=O)N[C@@H](CCCCN)C(=O)O (stereo partly drawn) [YDE-024, HyP-Gly-Gln-Asp-Thr-Leu-Ala-Gly-Pro-Lys] (H-[Hyp]GQD[Thr(3ξ)]LAGPK-OH)
A) 20.59

Q) Respond only with Amount of related substances (%; after 12 weeks) recorded for CC(C)C[C@H](NC(=O)CNC(=O)[C@H](C)NC(=O)[C@H](CCC(N)=O)NC(=O)CNC(=O)[C@@H]1C[C@@H](O)CN1)C(=O)N[C@@H](C)C(=O)NCC(=O)N1CCC[C@H]1C(=O)N[C@@H](CCCCN)C(=O)O [YDE-008, HyP-Gly-Gln-Ala-Gly-Leu-Ala-Gly-Pro-Lys] (H-[Hyp]GQAGLAGPK-OH)
A) 4.42

Q) Determine from records and report Amount of related substances (%; after 12 weeks) for CCC(C)[C@H](NC(=O)[C@H](CCC(N)=O)NC(=O)CNC(=O)[C@@H]1C[C@@H](O)CN1)C(=O)NCC(=O)N[C@@H](CC(C)C)C(=O)N[C@@H](C)C(=O)NCC(=O)N1CCC[C@H]1C(=O)N[C@@H](CCCCN)C(=O)O (stereo partly drawn) [YDE-010, HyP-Gly-Gln-Ile-Gly-Leu-Ala-Gly-Pro-Lys] (H-[Hyp]GQ[Ile(3ξ)]GLAGPK-OH)
A) 4.39

Q) Please list Amount of related substances (%; after 12 weeks) recorded for the molecule CC(C)C[C@H](NC(=O)[C@@H](NC(=O)[C@H](CC(=O)O)NC(=O)[C@H](CCC(N)=O)NC(=O)CNC(=O)[C@@H]1C[C@@H](O)CN1)C(C)C)C(=O)N[C@@H](C)C(=O)NCC(=O)N1CCC[C@H]1C(=O)N[C@@H](CCCCN)C(=O)O [YDE-015, HyP-Gly-Gln-Asp-Val-Leu-Ala-Gly-Pro-Lys] (H-[Hyp]GQDVLAGPK-OH)
A) 13.05

Q) Could you please provide reported Amount of related substances (%; after 12 weeks) for CC(C)C[C@H](NC(=O)CNC(=O)[C@H](CCCCN)NC(=O)[C@H](CCC(N)=O)NC(=O)CNC(=O)[C@@H]1C[C@@H](O)CN1)C(=O)N[C@@H](C)C(=O)NCC(=O)N1CCC[C@H]1C(=O)N[C@@H](CCCCN)C(=O)O [YDE-005, HyP-Gly-Gln-Lys-Gly-Leu-Ala-Gly-Pro-Lys] (H-[Hyp]GQKGLAGPK-OH) ? Thanks!
A) 2.97

Q) Provide one value: measured Amount of related substances (%; after 12 weeks) of CC(C)C[C@H](NC(=O)CNC(=O)[C@@H](NC(=O)[C@H](CCC(N)=O)NC(=O)CNC(=O)[C@@H]1C[C@@H](O)CN1)C(C)C)C(=O)N[C@@H](C)C(=O)NCC(=O)N1CCC[C@H]1C(=O)N[C@@H](CCCCN)C(=O)O [YDE-009, HyP-Gly-Gln-Val-Gly-Leu-Ala-Gly-Pro-Lys] (H-[Hyp]GQVGLAGPK-OH)
A) 4.71

###

# Test system: cornea of rats with dry eye syndrome (ELGE)
# Procedure Details: Corneal permeability of fluorescent dye (corneal damage) in rats with ELGE-induced dry eye syndrome
# Type: in vivo, rat
# Particulars: 0.3% solution, day 14 after the administration, study of YDE-029 to YDE-043 (Table 17)
Starred links: 1 amine or outer side, 2 acyl side, 3 side chain; linkers in the order of their positions; H or OH if unused. Non-standard residues stand in square brackets, D forms with d. Residues, ends and D or L forms follow the SMILES beside them. Pro(trans-4-F) = O=C(O)[C@@H]1C[C@@H](F)CN1; Pro(4,4-Me2) = CC1(C)CN[C@H](C(=O)O)C1; X1 = O=C([C@H](CCCCO)N[*:1])[*:2]; Hyp = O=C(O)[C@@H]1C[C@@H](O)CN1; pGlu = O=C1CC[C@@H](C(=O)O)N1
// returns rule not met unless Permeability of fluorescent dye (%) is strictly below 50%, in which case rule met

Q) Permeability of fluorescent dye (%) under 50%? Item: CC(C)C[C@H](NC(=O)[C@H](CCC(N)=O)NC(=O)CNC(=O)[C@@H]1C[C@@H](O)CN1)C(=O)NCC(=O)O [YDE-043, HyP-Gly-Gln-Leu-Gly] (H-[Hyp]GQLG-OH)
A) rule met

Q) Input CC(C)C[C@H](NC(=O)CNC(=O)[C@H](CC(C)C)NC(=O)[C@H](CCC(N)=O)NC(=O)CNC(=O)[C@@H]1CCC(=O)N1)C(=O)N[C@@H](C)C(=O)NCC(=O)N1CCC[C@H]1C(=O)N[C@@H](CCCCN)C(=O)O [YDE-036] ([pGlu]GQLGLAGPK-OH) ; condition: Permeability of fluorescent dye (%) strictly below 50%. Does it hold?
A) rule not met

Q) Hello, is Permeability of fluorescent dye (%) of the following compound strictly smaller than 50%? CC(C)C[C@H](NC(=O)CNC(=O)[C@H](CC(C)C)NC(=O)[C@H](CCC(N)=O)NC(=O)CNC(=O)[C@@H]1C[C@@H](F)CN1)C(=O)N[C@@H](C)C(=O)NCC(=O)N1CCC[C@H]1C(=O)N[C@@H](CCCCN)C(=O)O [YDE-039] (H-[Pro(trans-4-F)]GQLGLAGPK-OH)
A) rule met

Q) Is Permeability of fluorescent dye (%) of CC(C)C[C@H](NC(=O)CNC(=O)[C@H](CC(C)C)NC(=O)[C@H](CCC(N)=O)NC(=O)CNC(=O)[C@@H]1CC(C)(C)CN1)C(=O)N[C@@H](C)C(=O)NCC(=O)N1CCC[C@H]1C(=O)N[C@@H](CCCCN)C(=O)O [YDE-040] (H-[Pro(4,4-Me2)]GQLGLAGPK-OH) strictly below 50%?
A) rule met

Q) Dear colleague, could you confirm whether Permeability of fluorescent dye (%) of CC(C)C[C@H](NC(=O)CNC(=O)[C@H](CC(C)C)NC(=O)[C@H](CCC(N)=O)NC(=O)CNC(=O)[C@@H]1C[C@@H](O)CN1)C(=O)N[C@@H](C)C(=O)NCC(=O)N1CCC[C@H]1C(=O)N[C@@H](CCCCO)C(=O)O [YDE-033] (H-[Hyp]GQLGLAGP[X1]-OH) falls below 50%? Thanks.
A) rule not met

Q) Is Permeability of fluorescent dye (%) of CC(C)C[C@H](NC(=O)CNC(=O)[C@H](CC(C)C)NC(=O)[C@H](CCC(N)=O)NC(=O)CNC(=O)[C@@H]1C[C@@H](O)CN1)C(=O)N[C@@H](C)C(=O)O [YDE-041, HyP-Gly-Gln-Leu-Gly-Leu-Ala] (H-[Hyp]GQLGLA-OH) strictly below 50%?
A) rule met
